pIC50: −log10 of the molar value.
Literature-derived pIC50 for human GST-DYRK1A (Homo sapiens, UniProt Q13627) follows.
QUANTITY KIND: pIC50

These recorded examples may help you get a feel for the data.
C=Cc1cn([C@@H]2S[C@H](CO)[C@@H](O)[C@H]2O)c2ncnc(N)c12    6.95
NC1=N/C(=C\c2ccc(O)c(O)c2)C(=O)N1    6.33
O=c1c2c(ccc3nc(-c4cnccn4)sc32)ncn1Cc1ccccc1    6.88
COc1cc(C=C2N=C(N)NC2=O)ccc1F    5.89
CC#Cc1cn([C@@H]2S[C@H](CO)[C@@H](O)[C@H]2O)c2ncnc(N)c12    5.90
CN1C(=O)N=C(Nc2nc(Cc3ccc4c(c3)OCO4)cn2C)C1=O    5.11
CCC#Cc1cn([C@@H]2S[C@H](CO)[C@@H](O)[C@H]2O)c2ncnc(N)c12    5.53
COc1ccc(C=C2N=C(N)NC2=O)cc1F    5.40
CN1C(=N)N=C(Nc2nc(Cc3ccc4c(c3)OCO4)cn2C)C1=O    5.28
NS(=O)(=O)c1ccc(Nc2nc(OCC3CCCCC3)c3nc[nH]c3n2)cc1    6.02

A: CC(C)n1cnc2c(Nc3ccncc3)nc(Nc3ncccn3)nc21
B: C=CCc1[nH]c2c(Cl)cccc2c1C#N
C: Cc1nccc2c1[nH]c1cc(OCCC(=O)O)ccc12
D: COc1ccc(/C=C2\SC(NCCCN3CCN(CCCNC4=NC(=O)/C(=C/c5ccc(OC)cc5)S4)CC3)=NC2=O)cc1
List from greatest to least pIC50. Reply with the labels, ordered as the question asks. D, B, C, A
(D: 7.39, B: 6.16, C: 5.74, A: 5.28)

a: N#Cc1c(-c2ccccc2)[nH]c2c(Br)cccc12
b: O=C1NC(=S)S/C1=C\c1ccc2c(c1)OCO2
// compare measured pIC50 between a and b ; output the lower one # answer = label of selected item b

1: Cc1nccc2c1[nH]c1cc(OCCC(N)=O)ccc12
2: Nc1ncnc2c1c(-c1ccco1)cn2[C@@H]1S[C@H](CO)[C@@H](O)[C@H]1O
3: Nc1ncnc2c1c(-c1cccs1)cn2[C@@H]1S[C@H](CO)[C@@H](O)[C@H]1O
List from greatest to least pIC50. Reply with the labels, ordered as the question asks. 2, 1, 3
